- Tested on: Plasmodium berghei
- protocol.summary: Antiplasmodial activity against Plasmodium berghei liver stage form transfected in human Huh-7 cells assessed as cell viability after 48 hrs by luciferase reporter gene assay
- Format: functional, organism-based
- assay.context: Huh-7, 48 h
observable: IC50

Query string: # get_value(readout= IC50, system= Plasmodium berghei) for COc1ccc(/C=C/C(=O)NCCCCNc2ccnc3cc(Cl)ccc23)cc1OC
Result string: 4050 nM

Query string: # get_value(readout= IC50, system= Plasmodium berghei) for COc1ccc(/C=C/C(=O)OCCCCNc2ccnc3cc(Cl)ccc23)cc1
Result string: 6470 nM

Query string: # get_value(readout= IC50, system= Plasmodium berghei) for CCN(CC)CCCC(C)Nc1ccnc2cc(Cl)ccc12 (centres undefined)
Result string: 15900 nM

Query string: # get_value(readout= IC50, system= Plasmodium berghei) for O=C(/C=C/c1ccc(F)cc1)NCCCCNc1ccnc2cc(Cl)ccc12
Result string: 1420 nM

Query string: # get_value(readout= IC50, system= Plasmodium berghei) for COc1ccc(/C=C/C(=O)NCCCCNc2ccnc3cc(Cl)ccc23)cc1
Result string: 2860 nM

Query string: # get_value(readout= IC50, system= Plasmodium berghei) for O=C(/C=C/c1ccccc1)NCCCCNc1ccnc2cc(Cl)ccc12
Result string: 1060 nM

Query string: # get_value(readout= IC50, system= Plasmodium berghei) for COc1ccc(/C=C/C(=O)NCCCCCNc2ccnc3cc(Cl)ccc23)cc1
Result string: 2270 nM

Query string: # get_value(readout= IC50, system= Plasmodium berghei) for O=C(/C=C/c1ccc(Cl)cc1)NCCCCCNc1ccnc2cc(Cl)ccc12
Result string: 1620 nM

Query string: # get_value(readout= IC50, system= Plasmodium berghei) for COc1ccc(/C=C/C(=O)NCCCC(C)Nc2cc(OC)cc3cccnc23)cc1 (centres undefined)
Result string: 2350 nM

Query string: # get_value(readout= IC50, system= Plasmodium berghei) for COc1ccc(/C=C/C(=O)NCCCCNc2ccncc2)cc1
Result string: > 10000 nM

Query string: # get_value(readout= IC50, system= Plasmodium berghei) for Cc1ccc(/C=C/C(=O)NCCCCNc2ccnc3cc(Cl)ccc23)cc1
Result string: 2360 nM

Query string: # get_value(readout= IC50, system= Plasmodium berghei) for CC(C)c1ccc(/C=C/C(=O)NCCCCN2CCOCC2)cc1
Result string: > 10000 nM

Query string: # get_value(readout= IC50, system= Plasmodium berghei) for CC(C)c1ccc(/C=C/C(=O)NCCCCNc2ccnc3cc(Cl)ccc23)cc1
Result string: 2500 nM

Query string: # get_value(readout= IC50, system= Plasmodium berghei) for O=C(/C=C/c1ccc(Cl)cc1)NCCCCNc1ccnc2cc(Cl)ccc12
Result string: 1440 nM

Query string: # get_value(readout= IC50, system= Plasmodium berghei) for O=C(/C=C/c1ccccc1[N+](=O)[O-])NCCCCNc1ccnc2cc(Cl)ccc12
Result string: 1090 nM

Query string: # get_value(readout= IC50, system= Plasmodium berghei) for O=C(/C=C/c1ccc(Br)cc1)NCCCCNc1ccnc2cc(Cl)ccc12
Result string: 2280 nM

Query string: # get_value(readout= IC50, system= Plasmodium berghei) for COc1ccc(/C=C/C(=O)NCCCNc2ccnc3cc(Cl)ccc23)cc1
Result string: 4020 nM

Query string: # get_value(readout= IC50, system= Plasmodium berghei) for COc1cc(NC(C)CCCN)c2ncccc2c1 (centres undefined)
Result string: 7500 nM

Query string: # get_value(readout= IC50, system= Plasmodium berghei) for O=C(/C=C/c1cccc(F)c1)NCCCCNc1ccnc2cc(Cl)ccc12
Result string: 1130 nM

Each recorded value in this set is attributed to ChEMBL document CHEMBL2311413.
